target: human TLR7 (Homo sapiens, UniProt Q9NYK1); experiment: TLR7 inhibition reporter assay (HEK-Blue SEAP); details: cells overexpressing human TLR7, SEAP reporter, stimulated with gardiquimod 7.5 μM, 22 hour incubation
Sequence (Q9NYK1 27-1049): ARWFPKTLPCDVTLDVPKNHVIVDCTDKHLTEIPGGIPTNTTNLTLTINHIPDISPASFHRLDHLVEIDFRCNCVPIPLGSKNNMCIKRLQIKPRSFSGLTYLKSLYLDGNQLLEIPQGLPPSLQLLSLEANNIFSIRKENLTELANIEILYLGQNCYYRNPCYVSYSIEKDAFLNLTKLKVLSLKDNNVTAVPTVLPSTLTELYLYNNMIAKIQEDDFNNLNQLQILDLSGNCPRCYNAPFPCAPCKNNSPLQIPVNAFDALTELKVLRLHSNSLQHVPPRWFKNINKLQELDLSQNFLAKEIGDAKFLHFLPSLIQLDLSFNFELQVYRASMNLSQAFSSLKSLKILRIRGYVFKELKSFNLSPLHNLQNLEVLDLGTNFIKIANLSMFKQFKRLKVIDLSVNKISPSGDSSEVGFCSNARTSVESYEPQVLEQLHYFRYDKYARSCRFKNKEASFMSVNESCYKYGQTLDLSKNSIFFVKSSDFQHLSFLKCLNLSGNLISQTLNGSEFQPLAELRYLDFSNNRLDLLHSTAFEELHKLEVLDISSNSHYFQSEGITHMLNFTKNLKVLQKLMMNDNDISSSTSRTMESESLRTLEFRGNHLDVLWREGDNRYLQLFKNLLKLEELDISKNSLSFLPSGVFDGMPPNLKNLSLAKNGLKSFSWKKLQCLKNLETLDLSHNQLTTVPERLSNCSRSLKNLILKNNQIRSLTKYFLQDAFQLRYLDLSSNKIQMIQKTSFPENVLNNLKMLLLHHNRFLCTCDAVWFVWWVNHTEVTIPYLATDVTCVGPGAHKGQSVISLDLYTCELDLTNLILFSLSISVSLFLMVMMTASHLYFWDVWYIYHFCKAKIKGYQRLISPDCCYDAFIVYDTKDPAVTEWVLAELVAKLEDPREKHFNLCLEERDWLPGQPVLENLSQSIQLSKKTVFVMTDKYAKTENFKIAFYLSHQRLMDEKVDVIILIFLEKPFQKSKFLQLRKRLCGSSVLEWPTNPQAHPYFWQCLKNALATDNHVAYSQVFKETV
quantity: IC50

compound	observedResult
CCc1c(-c2ccnc(C)c2)[nH]c2cnc(C3CCN(C4CCN(C(C)C)CC4)CC3)nc12	100 to 1000 nM

For human TLR7 (Homo sapiens, UniProt Q9NYK1), give the measured IC50 of the entry `CCc1c(-c2ccc(OC)c(OC)c2)[nH]c2cnc(C3CCN(Cc4nc(C)c[nH]4)CC3)nc12` 100 to 1000 nM

For human TLR7 (Homo sapiens, UniProt Q9NYK1), give the measured IC50 of the entry `CCc1c(-c2ccc(OC)c(OC)c2)[nH]c2cnc(-c3nnc([C@@H]4CCNC4)o3)nc12` 1000 to 50000 nM
